Assay Target: T1, cynomolgus PVRIG on cells (cynomolgus, UniProt A0A2K5WVV8 41-322)
T1 construct: whole, on cells; also called cPVRIG; expi cPVRIG cells
T1 sequence: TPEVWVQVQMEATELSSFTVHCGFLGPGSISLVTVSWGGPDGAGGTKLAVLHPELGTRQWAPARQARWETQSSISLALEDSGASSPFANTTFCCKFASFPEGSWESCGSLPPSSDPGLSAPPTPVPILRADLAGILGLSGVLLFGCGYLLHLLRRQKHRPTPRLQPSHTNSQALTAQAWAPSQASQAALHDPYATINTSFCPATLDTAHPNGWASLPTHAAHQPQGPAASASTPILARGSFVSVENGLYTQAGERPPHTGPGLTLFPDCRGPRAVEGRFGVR
Procedure Details: FACS, cyno PBMC, NK cells, 10ug/ml
Recorded gMFIr Cyno NK cells for the following binders
Result Type: gMFIr Cyno NK cells

CHA.7.543 (antibody, V domains shown) VH: QVQLKESGPGLVAPSQSLSITCTVSGFSLSGYGIKWVRQPPGKGLEWLGTIWGDGSTDYNSALKSRLSISKDNSKSQVFLKMTSLQTDDTARYYCASDSLGITFGYWGQGTLVTVSA VL: DIQMTQTTSSLSASLGDRVTISCRASQDISNYLNWYQQKPDGTVKLLIYYTSRLHSGVPSRFSGSGSGTDYSLTISNLEQEDIATYFCQQGNTLPLTFGAGTKLELK    1.35
CHA.7.528 (antibody, V domains shown) VH: EVQVQQSGPELVKPGASVKISCKASGYTFTKSNMHWVKQSHGKSLEWIGYIYPYNGGTGYNQNFKSKATLTVDISSSTAYMELRSLTLEDSAVYLCAREADYYGNRGQFDYWGQGTLVTVSA VL: DIQMTQSPASLSVSVGETVTITCRASDNIFSNLAWYHQKQGKSPHLLVYGATNLADGVPSRFSGSGSGTQYSLKINSLQSEDFGDYYCQHFWGTPYTFGGGTKLEIK    1.21
CHA.7.548 (antibody, V domains shown) VH: EVQLQQSGPELVKPGASVKISCKASGYTFTDYSMNWVKQSHGKSLEWIGDITPNNGSPNYNQKFKDKATLTVDKSSSTVYMELRSLTSEDSAVYYCASLFFDYWGHGTTLTVSS VL: DIVMTQSPSSLSVSAGEKVTMSCKSSQSLLNSGNQKNYLAWYQQKPGQPPKLLIYGASTRDSGVPDRFTGSGSGTDFTLTITSVQAEDLAVYYCQNDHTYPYTFGGGTKLEIK    1.18
